- systemName: Gal-1 (Homo sapiens, UniProt P09382)
- Construct: made in house; host or cells: E. coli BL21(DE3)
- Sequence (P09382 whole entry): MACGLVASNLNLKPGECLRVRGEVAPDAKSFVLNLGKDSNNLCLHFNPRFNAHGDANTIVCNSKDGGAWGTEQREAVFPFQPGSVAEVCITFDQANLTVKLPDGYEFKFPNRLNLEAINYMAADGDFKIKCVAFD
- methodSummary: Pull-down assay with immobilized protein and LSM libraries
- Assay type: binding
- appliedConditions: H14 library; 1:1 binding assumed; read-out: Surface mapping KD (apparent)
experimentalReadout: pKd
Hey, just a heads up that pKd is the negative log base 10 of the concentration in molar.

Answered cases to consult:
mol	pKd
CSCC[C@@H](CC(=O)N[C@H]1CCCC[C@@H]1C(=O)N[C@H]1CCCC[C@@H]1C(=O)N[C@@H](CCCNC(=N)N)CC(=O)N[C@H]1CCCC[C@@H]1C(N)=O)NC(=O)[C@H]1CCCC[C@@H]1N	3.40
C[C@@H](O)[C@@H](CC(=O)N[C@H]1CCCC[C@@H]1C(N)=O)NC(=O)[C@H]1CCCC[C@@H]1NC(=O)[C@H]1CCCC[C@@H]1NC(=O)C[C@H](CCC(N)=O)NC(=O)[C@H]1CCCC[C@@H]1N	3.49
NC(=O)CC[C@@H](CC(=O)N[C@H]1CCCC[C@@H]1C(=O)N[C@H]1CCCC[C@@H]1C(=O)N[C@@H](CC(N)=O)CC(=O)N[C@H]1CCCC[C@@H]1C(N)=O)NC(=O)[C@H]1CCCC[C@@H]1N	3.59
NC(=O)[C@H]1CCCC[C@@H]1NC(=O)C[C@H](Cc1c[nH]c2ccccc12)NC(=O)[C@H]1CCCC[C@@H]1NC(=O)[C@H]1CCCC[C@@H]1NC(=O)C[C@H](CO)NC(=O)[C@H]1CCCC[C@@H]1N	3.82

Let us move to another entry and its pKd.
## Task // lookup pKd for `NC(=O)[C@H]1CCCC[C@@H]1NC(=O)C[C@H](CCC(=O)O)NC(=O)[C@H]1CCCC[C@@H]1NC(=O)[C@H]1CCCC[C@@H]1NC(=O)C[C@H](CO)NC(=O)[C@H]1CCCC[C@@H]1N`
## Result 3.49

----------
- systemName: S100A4 (Homo sapiens, UniProt P26447)
- Construct: made in house; host or cells: Escherichia coli BL21(DE3)
- Sequence (P26447 whole entry): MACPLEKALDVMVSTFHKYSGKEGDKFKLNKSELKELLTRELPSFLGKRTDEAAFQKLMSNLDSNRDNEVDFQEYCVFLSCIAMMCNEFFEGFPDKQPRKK
- methodSummary: Pull-down assay with immobilized protein and LSM libraries
- Assay type: binding
- appliedConditions: H14 library; 1:1 binding assumed; read-out: Surface mapping KD (apparent)
pKd: −log10 of the molar value.
The label depends only on pKd: True if it is at least 4, False if it is smaller.

Record excerpt, results attached:
mol	groupLabel
CC(C)[C@@H](CC(=O)N[C@H]1CCCC[C@@H]1C(N)=O)NC(=O)[C@H]1CCCC[C@@H]1NC(=O)[C@H]1CCCC[C@@H]1NC(=O)C[C@H](CC(N)=O)NC(=O)[C@H]1CCCC[C@@H]1N	False
CC(C)[C@@H](CC(=O)N[C@H]1CCCC[C@@H]1C(N)=O)NC(=O)[C@H]1CCCC[C@@H]1NC(=O)[C@H]1CCCC[C@@H]1NC(=O)C[C@H](CCCNC(=N)N)NC(=O)[C@H]1CCCC[C@@H]1N	True
CC(C)C[C@@H](CC(=O)N[C@H]1CCCC[C@@H]1C(=O)N[C@H]1CCCC[C@@H]1C(=O)N[C@@H](CCC(N)=O)CC(=O)N[C@H]1CCCC[C@@H]1C(N)=O)NC(=O)[C@H]1CCCC[C@@H]1N	False
C[C@@H](CC(=O)N[C@H]1CCCC[C@@H]1C(N)=O)NC(=O)[C@H]1CCCC[C@@H]1NC(=O)[C@H]1CCCC[C@@H]1NC(=O)C[C@@H](NC(=O)[C@H]1CCCC[C@@H]1N)[C@@H](C)O	False

Read the next record carefully.
## Task Item `C[C@@H](O)[C@@H](CC(=O)N[C@H]1CCCC[C@@H]1C(N)=O)NC(=O)[C@H]1CCCC[C@@H]1NC(=O)[C@H]1CCCC[C@@H]1NC(=O)C[C@H](Cc1ccc(O)cc1)NC(=O)[C@H]1CCCC[C@@H]1N` with pKd of 4 or above?
## Result False

----------
- systemName: S100B (Homo sapiens)
- Construct: made in house; host or cells: Escherichia coli BL21(DE3)
- Sequence (P04271 whole entry): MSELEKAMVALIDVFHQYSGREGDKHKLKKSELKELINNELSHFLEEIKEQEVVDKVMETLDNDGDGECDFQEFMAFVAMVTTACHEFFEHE
- methodSummary: Pull-down assay with immobilized protein and LSM libraries
- Type: binding
- appliedConditions: H14 library; 1:1 binding assumed; read-out: Surface mapping KD (apparent)
experimentalReadout: pKd
Hey, just a heads up that pKd is the negative log base 10 of the concentration in molar.

Answered cases to consult:
mol	resultValue
NCCCC[C@@H](CC(=O)N[C@H]1CCCC[C@@H]1C(=O)N[C@H]1CCCC[C@@H]1C(=O)N[C@@H](CCC(N)=O)CC(=O)N[C@H]1CCCC[C@@H]1C(N)=O)NC(=O)[C@H]1CCCC[C@@H]1N	3.76
CC(C)[C@@H](CC(=O)N[C@H]1CCCC[C@@H]1C(N)=O)NC(=O)[C@H]1CCCC[C@@H]1NC(=O)[C@H]1CCCC[C@@H]1NC(=O)C[C@H](CCCNC(=N)N)NC(=O)[C@H]1CCCC[C@@H]1N	4.20

## Task // lookup pKd for `C[C@@H](O)[C@@H](CC(=O)N[C@H]1CCCC[C@@H]1C(=O)N[C@H]1CCCC[C@@H]1C(=O)N[C@H](CC(=O)N[C@H]1CCCC[C@@H]1C(N)=O)Cc1ccccc1)NC(=O)[C@H]1CCCC[C@@H]1N`
## Result 4.36

## Task // lookup pKd for `NCCCC[C@@H](CC(=O)N[C@H]1CCCC[C@@H]1C(N)=O)NC(=O)[C@H]1CCCC[C@@H]1NC(=O)[C@H]1CCCC[C@@H]1NC(=O)C[C@H](CCC(=O)O)NC(=O)[C@H]1CCCC[C@@H]1N`
## Result 3.49

## Task // lookup pKd for `N=C(N)NCCC[C@@H](CC(=O)N[C@H]1CCCC[C@@H]1C(N)=O)NC(=O)[C@H]1CCCC[C@@H]1NC(=O)[C@H]1CCCC[C@@H]1NC(=O)C[C@H](CCC(=O)O)NC(=O)[C@H]1CCCC[C@@H]1N`
## Result 3.46

## Task // lookup pKd for `C[C@@H](O)[C@@H](CC(=O)N[C@H]1CCCC[C@@H]1C(=O)N[C@H]1CCCC[C@@H]1C(=O)N[C@H](CC(=O)N[C@H]1CCCC[C@@H]1C(N)=O)Cc1c[nH]c2ccccc12)NC(=O)[C@H]1CCCC[C@@H]1N`
## Result 4.33

## Task // lookup pKd for `NC(=O)[C@H]1CCCC[C@@H]1NC(=O)C[C@H](Cc1ccc(O)cc1)NC(=O)[C@H]1CCCC[C@@H]1NC(=O)[C@H]1CCCC[C@@H]1NC(=O)C[C@H](CC(=O)O)NC(=O)[C@H]1CCCC[C@@H]1N`
## Result 3.34

## Task // lookup pKd for `C[C@@H](O)[C@@H](CC(=O)N[C@H]1CCCC[C@@H]1C(N)=O)NC(=O)[C@H]1CCCC[C@@H]1NC(=O)[C@H]1CCCC[C@@H]1NC(=O)C[C@H](Cc1ccc(O)cc1)NC(=O)[C@H]1CCCC[C@@H]1N`
## Result 3.38

## Task // lookup pKd for `CSCC[C@@H](CC(=O)N[C@H]1CCCC[C@@H]1C(=O)N[C@H]1CCCC[C@@H]1C(=O)N[C@H](CC(=O)N[C@H]1CCCC[C@@H]1C(N)=O)CC(C)C)NC(=O)[C@H]1CCCC[C@@H]1N`
## Result 4.21

## Task // lookup pKd for `CSCC[C@@H](CC(=O)N[C@H]1CCCC[C@@H]1C(=O)N[C@H]1CCCC[C@@H]1C(=O)N[C@H](CC(=O)N[C@H]1CCCC[C@@H]1C(N)=O)Cc1c[nH]c2ccccc12)NC(=O)[C@H]1CCCC[C@@H]1N`
## Result 4.36

## Task // lookup pKd for `N=C(N)NCCC[C@@H](CC(=O)N[C@H]1CCCC[C@@H]1C(N)=O)NC(=O)[C@H]1CCCC[C@@H]1NC(=O)[C@H]1CCCC[C@@H]1NC(=O)C[C@H](Cc1ccc(O)cc1)NC(=O)[C@H]1CCCC[C@@H]1N`
## Result 4.17

## Task // lookup pKd for `NCCCC[C@@H](CC(=O)N[C@H]1CCCC[C@@H]1C(=O)N[C@H]1CCCC[C@@H]1C(=O)N[C@H](CC(=O)N[C@H]1CCCC[C@@H]1C(N)=O)Cc1c[nH]c2ccccc12)NC(=O)[C@H]1CCCC[C@@H]1N`
## Result 4.55

## Task // lookup pKd for `NC(=O)[C@H]1CCCC[C@@H]1NC(=O)C[C@H](CO)NC(=O)[C@H]1CCCC[C@@H]1NC(=O)[C@H]1CCCC[C@@H]1NC(=O)C[C@H](Cc1c[nH]c2ccccc12)NC(=O)[C@H]1CCCC[C@@H]1N`
## Result 3.86

## Task // lookup pKd for `N=C(N)NCCC[C@@H](CC(=O)N[C@H]1CCCC[C@@H]1C(N)=O)NC(=O)[C@H]1CCCC[C@@H]1NC(=O)[C@H]1CCCC[C@@H]1NC(=O)C[C@H](CCCCN)NC(=O)[C@H]1CCCC[C@@H]1N`
## Result 4.66
